- METHOD_SUMMARY: Oral bioavailability in Sprague-Dawley rat at 10 mg/kg
- Format: ADME, organism-based
- EXPERIMENTAL_CONTEXT: in vivo
PROPERTY: bioavailability (%)
Answers are plain numbers, in %.

Qu. Give the reported bioavailability for this molecule. CC(C)(C)CCN1CC[C@H](CNC(=O)c2cc(Cl)cc(Cl)c2)[C@H](F)C1
Ans. 30

###

- METHOD_SUMMARY: Plasma clearance in Beagle dog at 1 mg/kg, iv
- Type: ADME, organism-based, Canis lupus familiaris
- Set-up: dose 1 mg/kg, route intravenous
PROPERTY: clearance

Qu. Fill in reported clearance for this entry: CC(C)(C)CCN1CC[C@H](CNC(=O)c2cc(Cl)cc(Cl)c2)[C@H](F)C1
Ans. 9.1 mL/min/kg
